Measured values drawn from patent US20240327428A1 for this set.

Measured CC50 at 6 days by item
assay: Cellular toxicity in MT-4 cells (XTT staining); assay type: cell-based; details: human, 6 days incubation, read-out: TC50 (50% reduction in cell viability)

### Prompt Tell me the measured CC50 at 6 days of Cn1nc(NS(C)(=O)=O)c2c(Cl)ccc(-n3c([C@H](Cc4cc(F)cc(F)c4)NC(=O)Cn4nc(C(F)(F)F)c5c4C(F)(F)[C@@H]4C[C@H]54)nc4nc(N5CCOCC5)sc4c3=O)c21 , please.
### Response > 100 nM

Continuing:
### Prompt Tell me the measured CC50 at 6 days of Cn1nc(NS(C)(=O)=O)c2c(Cl)ccc(-n3c([C@H](Cc4cc(F)cc(F)c4)NC(=O)Cn4nc(C(F)(F)F)c5c4C(F)(F)[C@@H]4C[C@H]54)nc4onc(-c5ccccc5)c4c3=O)c21 (atropisomer, axis not shown) , please.
### Response > 100 nM

* * *

Measured Therapeutic Index (TC50/EC50) by item
system: HIV-1IIIB; assay: Inhibition of HIV-1IIIB infection in MT-4 cells (XTT staining); type: cell-based; conditions: HIV-1IIIB in MT-4 cells

Sample records with Therapeutic Index (TC50/EC50):
### Prompt Tell me the measured Therapeutic Index (TC50/EC50) of CN(C)c1nc2nc([C@H](Cc3cc(F)cc(F)c3)NC(=O)Cn3nc(C(F)(F)F)c4c3C(F)(F)[C@@H]3C[C@H]43)n(-c3ccc(Cl)c4c(NS(C)(=O)=O)nn(C)c34)c(=O)c2s1 (atropisomer, axis not shown) [Compound 48] , please.
### Response >432.9

### Prompt Tell me the measured Therapeutic Index (TC50/EC50) of Cn1nc(NS(C)(=O)=O)c2c(Cl)ccc(-n3c([C@H](Cc4cc(F)cc(F)c4)NC(=O)Cn4nc(C(F)(F)F)c5c4C(F)(F)[C@@H]4C[C@H]54)nc4nc(NCCC(F)(F)F)sc4c3=O)c21 [Compound 49] , please.
### Response >458.7

Continuing:
### Prompt Tell me the measured Therapeutic Index (TC50/EC50) of Cn1nc(NS(C)(=O)=O)c2c(Cl)ccc(-n3c([C@H](Cc4cc(F)cc(F)c4)NC(=O)Cn4nc(C(F)(F)F)c5c4C(F)(F)[C@@H]4C[C@H]54)nc4sccc4c3=O)c21 (atropisomer, axis not shown) [Compound 33] , please.
### Response >294.1

### Prompt Tell me the measured Therapeutic Index (TC50/EC50) of Cn1nc(NS(C)(=O)=O)c2c(Cl)ccc(-n3c([C@H](Cc4cc(F)cc(F)c4)NC(=O)Cn4nc(C(F)(F)F)c5c4C(F)(F)[C@@H]4C[C@H]54)nc4nc(NCCO)sc4c3=O)c21 [Compound 47] , please.
### Response >83.3

* * *

Measured CC50 at 6 days by item
Assay: Cellular toxicity in MT-4 cells (XTT staining)
Format: cell-based
Settings: human, 6 days incubation, read-out: TC50 (50% reduction in cell viability)
Method: The compounds were evaluated for inhibition of HIV-1IIIB infection and cellular toxicity in MT-4 cells. […] Fifty microliters (50 μL) of MT-4 cells at a density of 1.0×10^4 cells/well in 10% complete RPMI-1640 (10% FBS supplemented with 1% L-glutamine and 1% Penicillin/Streptomycin) media were plated in a 96-well flat bottom plate. One-hundred microliters (100 μL) of each compound at 12 concentrations were added in triplicate followed by 50 μL of HIV-1IIIB at a pre-determined titer. […]

### Prompt Tell me the measured CC50 at 6 days of Cn1nc(NS(C)(=O)=O)c2c(Cl)ccc(-n3c([C@H](Cc4cc(F)cc(F)c4)NC(=O)Cn4nc(C(F)(F)F)c5c4C(F)(F)[C@@H]4C[C@H]54)nc4nc(NCCC(F)(F)F)sc4c3=O)c21 , please.
### Response > 100 nM

Next:
### Prompt Tell me the measured CC50 at 6 days of CS(=O)(=O)Nc1nn(CC(F)(F)F)c2c(-n3c([C@H](Cc4cc(F)cc(F)c4)NC(=O)Cn4nc(C(F)(F)F)c5c4C(F)(F)[C@@H]4C[C@H]54)nc4ncsc4c3=O)ccc(Cl)c12 , please.
### Response > 100 nM
